The reported numbers originate from patent US20220033484A1.

Listed here are binders together with their documented kon.
- targetSystem: T1, cTnI quality control product recombinant protein (human, UniProt P19429 2-210, limits assumed)
- T1 construct: treated as the same molecule; also called cTnI antigen; cardiac troponin I
- T1 sequence (P19429 2-210 limits assumed): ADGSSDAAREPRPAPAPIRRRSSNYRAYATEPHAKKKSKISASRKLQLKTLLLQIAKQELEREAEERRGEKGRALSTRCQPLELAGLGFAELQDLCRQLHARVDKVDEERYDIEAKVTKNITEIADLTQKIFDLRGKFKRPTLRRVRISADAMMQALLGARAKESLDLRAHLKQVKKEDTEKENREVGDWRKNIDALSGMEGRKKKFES
- protocolDetails: AMC sensor, antibody immobilised, cTnI in solution
# value in M⁻¹ s⁻¹; strip the unit string

Reference set, count: 3
Mutation 1-3 (antibody, V domains shown, Built as m8) VH: EVQLQQSGPELVKPGASVKMSCKASGYTFTLYVVHWVKQKPGQGLEWIGYIQPYIDGTKYNEKFKGKATLTVDKSSSTAFMELSSLTSEDSAVYYCARSGYGQYGLAWLAYWGQGTLVTVSA VL: QAVVIQESALTTSPGETVTLTCRSSTGAVTTSNYANWVQEKPDHLFTGLIGGSQNRAPGVPARFSGSLIGDKAALTITGAQTEDEAIYFCALVYSNQWVFGGGTKLTVLG; 23900
Mutation 1-27 (antibody, V domains shown, Built as m8) VH: EVQLQQSGPELVKPGASVKMSCKASGYTFTLYVVHWVKQKPGQGLEWIGYIYPYLDGTKYNEKFKGKATLTVDKSSSTAFMELSSLTSEDSAVYYCARSGYGQYGLAWLAYWGQGTLVTVSA VL: QAVVIQESALTTSPGETVTLTCRSSTGAVTTSNYANWVQEKPDHLFTGLIGGSQNRAPGVPARFSGSLIGDKAALTITGAQTEDEAIYFCALVYSNHWVFGGGTKLTVLG; 20700
Mutation 1-38 (antibody, V domains shown, Built as m8) VH: EVQLQQSGPELVKPGASVKMSCKASGYTFTIYVIHWVKQKPGQGLEWIGYIYPYIDGTKYNEKFKGKATLTVDKSSSTAFMELSSLTSEDSAVYYCARSGYGGYGLAWLAYWGQGTLVTVSA VL: QAVVIQESALTTSPGETVTLTCRSSTGAVTTSQYANWVQEKPDHLFTGLIGGSNNRAPGVPARFSGSLIGDKAALTITGAQTEDEAIYFCALVYSNNWVFGGGTKLTVLG; 67700

Name the reported kon value associated with the binder Mutation 1-24 (antibody, V domains shown, Built as m8) VH: EVQLQQSGPELVKPGASVKMSCKASGYTFTIYVVHWVKQKPGQGLEWIGYIYPYLDGTKYNEKFKGKATLTVDKSSSTAFMELSSLTSEDSAVYYCARSGYGQYGLAWLAYWGQGTLVTVSA VL: QAVVIQESALTTSPGETVTLTCRSSTGAATTSQYANWVQEKPDHLFTGLIGGSNNRAPGVPARFSGSLIGDKAALTITGAQTEDEAIYFCALVYSNNWVFGGGTKLTVLG 57400

Name the reported kon value associated with the binder Mutation 1-47 (antibody, V domains shown, Built as m8) VH: EVQLQQSGPELVKPGASVKMSCKASGYTFTLYVIHWVKQKPGQGLEWIGYINPYLDGTKYNEKFKGKATLTVDKSSSTAFMELSSLTSEDSAVYYCARSGYGGYGLAWLAYWGQGTLVTVSA VL: QAVVIQESALTTSPGETVTLTCRSSTGAATTSQYANWVQEKPDHLFTGLIGGSQNRAPGVPARFSGSLIGDKAALTITGAQTEDEAIYFCALVYSNHWVFGGGTKLTVLG 64100

Name the reported kon value associated with the binder Mutation 1-37 (antibody, V domains shown, Built as m8) VH: EVQLQQSGPELVKPGASVKMSCKASGYTFTIYVLHWVKQKPGQGLEWIGYINPYLDGTKYNEKFKGKATLTVDKSSSTAFMELSSLTSEDSAVYYCARSGYGNYGLAWLAYWGQGTLVTVSA VL: QAVVIQESALTTSPGETVTLTCRSSTGAVTTSQYANWVQEKPDHLFTGLIGGSQNRAPGVPARFSGSLIGDKAALTITGAQTEDEAIYFCALVYSNQWVFGGGTKLTVLG 39900
